Test System: IRAK4 kinase (Homo sapiens, UniProt Q9NWZ3)
Construct: purchased Carna 09-145
Experiment Description: Compound inhibition of IRAK4 kinase activity (fluorescence microfluidic mobility shift assay)
Type: biochemical
Condition Details: Table 2; 10 μM ATP, 6 nM IRAK4 kinase
Method: Based on the experimental method of fluorescence microfluidic mobility shift assay, the IC50 value of the compound for competitive binding of ATP to IRAK4 kinase was determined. […] 5) Data reading: CaliperEZ Reader II instrument was used to read the conversion rate data. […] 6) Data calculation: the conversion rate data was copied from CaliperEZ Reader II, and the conversion rate was converted into inhibition rate data. […]
Result Type: IC50

Compound: CC(C)(O)c1cc2nn(CCN3CCN(CC(=O)N4CC5(CCN(c6cccc7c6C(=O)N(C6CCC(=O)NC6=O)C7=O)CC5)C4)C3=O)cc2cc1NC(=O)c1cccc(C(F)(F)F)n1 (centres unmarked)
IC50: 100 to 1000 nM
//
Compound: Cc1ncsc1-c1ccc([C@H](C)NC(=O)[C@@H]2C[C@@H](O)CN2C(=O)[C@@H](NC(=O)C2CC3(CCN(C(=O)CN4CCN(CCn5cc6cc(NC(=O)c7cccc(C(F)(F)F)n7)c(C(C)(C)O)cc6n5)C4=O)CC3)C2)C(C)(C)C)cc1
IC50: 100 to 1000 nM
//
Compound: COc1cc2c(cc1NC(=O)c1cccc(C(F)(F)F)n1)CN(CCC(C)(C)C(=O)N1CCC3(CC1)CCN(c1cccc4c1C(=O)N(C1CCC(=O)NC1=O)C4=O)CC3)C2=O (centres unmarked)
IC50: 100 to 1000 nM
//
Compound: O=C1CCC(N2C(=O)c3cccc(N4CCC5(CCN(C(=O)CN6CCN(CCn7cc8cc(NC(=O)c9cccc(C(F)(F)F)n9)c(OC(F)(F)F)cc8n7)CC6)CC5)CC4)c3C2=O)C(=O)N1 (centres unmarked)
IC50: 100 to 1000 nM

Query compound follows.
Quick check: IC50 of COc1cc2nn(CC#CC3CCN(CC(=O)N4CCC5(CC4)CCN(c4cccc6c4C(=O)N(C4CCC(=O)NC4=O)C6=O)CC5)CC3)cc2cc1NC(=O)c1cccc(C(F)(F)F)n1 (centres unmarked) ?
< 100 nM

---

compounds and their reported IC50
Test System: IRAK4 kinase (Homo sapiens, UniProt Q9NWZ3)
Construct: purchased Carna 09-145
Experiment Description: Compound inhibition of IRAK4 kinase activity (fluorescence microfluidic mobility shift assay)
Assay type: biochemical
Condition Details: Table 2; 10 μM ATP, 6 nM IRAK4 kinase

For orientation, consider the following solved cases.
Compound: COc1cc2c(cc1NC(=O)c1cccc(C(F)(F)F)n1)CN(CCC(C)(C)C(=O)N1CCC3(CC1)CN(c1cccc4c1C(=O)N(C1CCC(=O)NC1=O)C4=O)C3)C2=O (centres unmarked)
Test System: IRAK4 kinase (Homo sapiens, UniProt Q9NWZ3)
IC50: 100 to 1000 nM
//
Compound: COc1cc2nn(CCN3CCN(c4cccc5c4C(=O)N(C4CCC(=O)NC4=O)C5=O)CC3)cc2cc1NC(=O)c1cccc(C(F)(F)F)n1 (centres unmarked)
Test System: IRAK4 kinase (Homo sapiens, UniProt Q9NWZ3)
IC50: < 100 nM
//
Compound: COc1cc2c(cc1NC(=O)c1cccc(C(F)(F)F)n1)CN(CCN1CCN(CC(=O)N3CCC4(CC3)CCN(c3cccc5c3C(=O)N(C3CCC(=O)NC3=O)C5=O)CC4)CC1)C2=O (centres unmarked)
Test System: IRAK4 kinase (Homo sapiens, UniProt Q9NWZ3)
IC50: 100 to 1000 nM
//
Compound: COc1cc2c(cc1NC(=O)c1cccc(C(F)(F)F)n1)CN(CCN1CCN(CC(=O)N3CCC4(CCC(C(=O)NC(C(=O)N5CC(O)CC5C(=O)NC(C)c5ccc(-c6scnc6C)cc5)C(C)(C)C)CC4)CC3)CC1)C2=O (centres unmarked)
Test System: IRAK4 kinase (Homo sapiens, UniProt Q9NWZ3)
IC50: 100 to 1000 nM

May I ask what IC50 has been recorded for COc1cc2nn(CCN3CCC(CC(=O)N4CC5(C4)CN(c4cccc6c4C(=O)N(C4CCC(=O)NC4=O)C6=O)C5)CC3)cc2cc1NC(=O)c1cccc(C(F)(F)F)n1 (centres unmarked) ?
< 100 nM

---

Overview of recorded pIC50 for various molecules
Test System: IRAK4 kinase (Homo sapiens, UniProt Q9NWZ3)
Construct: purchased Carna 09-145
Experiment Description: Compound inhibition of IRAK4 kinase activity (fluorescence microfluidic mobility shift assay)
Assay type: biochemical
Condition Details: Table 1; 10 μM ATP, 6 nM IRAK4 kinase
pIC50: −log10 of the molar value.

Molecule: COc1cc2c(cc1NC(=O)c1cccc(C(F)(F)F)n1)CN(CCC(C)(C)C(=O)N1CCC3(CC1)CCN(c1cccc4c1C(=O)N(C1CCC(=O)NC1=O)C4=O)CC3)C2=O (centres unmarked)
pIC50: 6.00 to 7.00
//
Molecule: Cc1ncsc1-c1ccc([C@H](C)NC(=O)[C@@H]2C[C@@H](O)CN2C(=O)[C@@H](NC(=O)C2CCC3(CC2)CCN(C(=O)CN2CCN(CCn4cc5cc(NC(=O)c6cccc(C(F)(F)F)n6)c(C(C)(C)O)cc5n4)C2=O)CC3)C(C)(C)C)cc1
pIC50: 6.00 to 7.00
//
Molecule: CC(C)(O)c1cc2nn(CCN3CCN(CC(=O)N4CCN(c5cccc6c5C(=O)N(C5CCC(=O)NC5=O)C6=O)CC4)C3=O)cc2cc1NC(=O)c1cccc(C(F)(F)F)n1 (centres unmarked)
pIC50: 6.00 to 7.00

Which pIC50 value belongs to COc1cc2c(cc1NC(=O)c1cccc(C(F)(F)F)n1)CN(CCC(C)(C)C(=O)N1CCC3(CCC(C(=O)N[C@H](C(=O)N4C[C@H](O)C[C@H]4C(=O)N[C@@H](C)c4ccc(-c5scnc5C)cc4)C(C)(C)C)CC3)CC1)C2=O ?
> 7.00

Param item = CC(C)(O)c1cc2nn(CCN3CCN(CC(=O)N4CCC5(CC4)CCN(c4cccc6c4C(=O)N(C4CCC(=O)NC4=O)C6=O)CC5)C3=O)cc2cc1NC(=O)c1cccc(C(F)(F)F)n1 (centres unmarked) ; retrieve measured pIC50.
6.00 to 7.00

---

Test System: IRAK4 kinase (Homo sapiens, UniProt Q9NWZ3)
Construct: purchased Carna 09-145
Experiment Description: Compound inhibition of IRAK4 kinase activity (fluorescence microfluidic mobility shift assay)
Type: biochemical
Condition Details: Table 2; 10 μM ATP, 6 nM IRAK4 kinase
pIC50: −log10 of the molar value.
Result Type: pIC50

Compound: O=C1CCC(N2C(=O)c3cccc(NCCOCCOCCOCCN4Cc5cc(NC(=O)c6cccc(C(F)(F)F)n6)c(Br)cc5C4=O)c3C2=O)C(=O)N1 (centres unmarked)
pIC50: 5.00 to 6.00

Compound: CC(C)(O)c1cc2nn(CCN3CCN(CC(=O)N4CCC5(CC4)CN(c4cccc6c4C(=O)N(C4CCC(=O)NC4=O)C6=O)C5)C3=O)cc2cc1NC(=O)c1cccc(C(F)(F)F)n1 (centres unmarked)
pIC50: 6.00 to 7.00

Compound: Cc1ncsc1-c1ccc([C@H](C)NC(=O)C2C[C@@H](O)CN2C(=O)[C@@H](NC(=O)COCCNC(=O)CN2CCN(CCn3cc4cc(NC(=O)c5cccc(C(F)(F)F)n5)c(C(C)(C)O)cc4n3)C2=O)C(C)(C)C)cc1 (some centres unmarked)
pIC50: 6.00 to 7.00

Find pIC50 (IRAK4 kinase (Homo sapiens, UniProt Q9NWZ3)) for the entry CC(C)(O)c1cc2nn(CCN3CCN(CC(=O)NCCCCNc4cccc5c4C(=O)N(C4CCC(=O)NC4=O)C5=O)C3=O)cc2cc1NC(=O)c1cccc(C(F)(F)F)n1 (centres unmarked)
6.00 to 7.00

Find pIC50 (IRAK4 kinase (Homo sapiens, UniProt Q9NWZ3)) for the entry COc1cc2nn(CCN3CCN(C4CCC5(CC4)CCN(c4cccc6c4C(=O)N(C4CCC(=O)NC4=O)C6=O)CC5)CC3)cc2cc1NC(=O)c1cccc(C(F)(F)F)n1 (centres unmarked)
> 7.00

---

Test System: IRAK4 kinase (Homo sapiens, UniProt Q9NWZ3)
Construct: purchased Carna 09-145
Sequence (Q9NWZ3 1-460): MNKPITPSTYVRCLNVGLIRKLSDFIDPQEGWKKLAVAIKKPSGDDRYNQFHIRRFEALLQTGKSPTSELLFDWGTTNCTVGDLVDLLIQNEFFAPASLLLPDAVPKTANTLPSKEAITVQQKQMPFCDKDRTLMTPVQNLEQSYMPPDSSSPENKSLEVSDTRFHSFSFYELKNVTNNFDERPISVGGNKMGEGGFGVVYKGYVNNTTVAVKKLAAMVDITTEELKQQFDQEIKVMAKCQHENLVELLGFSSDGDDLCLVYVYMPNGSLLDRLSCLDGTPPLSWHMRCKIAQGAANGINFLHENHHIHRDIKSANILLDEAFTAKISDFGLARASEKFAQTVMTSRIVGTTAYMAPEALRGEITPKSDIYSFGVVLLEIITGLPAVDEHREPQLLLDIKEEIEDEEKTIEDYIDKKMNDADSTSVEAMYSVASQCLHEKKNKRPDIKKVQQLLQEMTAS
Experiment Description: Compound inhibition of IRAK4 kinase activity (fluorescence microfluidic mobility shift assay)
Assay type: biochemical
Condition Details: Table 2; 10 μM ATP, 6 nM IRAK4 kinase
Result Type: IC50

Example cases with answers are listed next.
Compound: CC(C)(O)c1cc2nn(CCN3CCN(CC(=O)N4CCN(c5cccc6c5C(=O)N(C5CCC(=O)NC5=O)C6=O)CC4)C3=O)cc2cc1NC(=O)c1cccc(C(F)(F)F)n1 (stereo not drawn)
IC50: 100 to 1000 nM
--
Compound: COc1cc2nn(CCN3CCN(CC(=O)N4CCC5(CC4)CN(c4cccc6c4C(=O)N(C4CCC(=O)NC4=O)C6=O)C5)CC3)cc2cc1NC(=O)c1cccc(C(F)(F)F)n1 (stereo not drawn)
IC50: < 100 nM
--
Compound: CC(C)(O)c1cc2nn(CCN3CCN(CC(=O)N4CCC5(CC4)CCN(c4cccc6c4C(=O)N(C4CCC(=O)NC4=O)C6=O)CC5)CC3)cc2cc1NC(=O)c1cccc(C(F)(F)F)n1 (stereo not drawn)
IC50: < 100 nM

# lookup: IC50 of COc1cc2c(cc1NC(=O)c1cccc(C(F)(F)F)n1)CN(CCN1CCN(CC(=O)N3CCC4(CCC(NC(C(=O)N5CC(O)CC5C(=O)NC(C)c5ccc(-c6scnc6C)cc5)C(C)(C)C)CC4)CC3)CC1)C2=O (stereo not drawn)
100 to 1000 nM

For COc1cc2c(cc1NC(=O)c1cccc(C(F)(F)F)n1)CN(CCC(C)(C)C(=O)N1CC3(C1)CN(c1cccc4c1C(=O)N(C1CCC(=O)NC1=O)C4=O)C3)C2=O (stereo not drawn) , what is its reported IC50?
100 to 1000 nM

Endpoint output: IC50 of COc1cc2c(cc1NC(=O)c1cccc(C(F)(F)F)n1)CN(CC(=O)N1CCC3(CC1)CCN(c1cccc4c1C(=O)N(C1CCC(=O)NC1=O)C4=O)CC3)C2=O (stereo not drawn) . Value?
100 to 1000 nM

Quick check: IC50 of Cc1ncsc1-c1ccc([C@H](C)NC(=O)[C@@H]2C[C@@H](O)CN2C(=O)[C@@H](NC(=O)C2CCC3(CC2)CCN(C(=O)CN2CCN(CCn4cc5cc(NC(=O)c6cccc(C(F)(F)F)n6)c(OC(C)C)cc5n4)CC2)CC3)C(C)(C)C)cc1 ?
< 100 nM

Recorded IC50 of CC(C)(O)c1cc2nn(CCN3CCN(CC(=O)N4CC5(C4)CN(c4cccc6c4C(=O)N(C4CCC(=O)NC4=O)C6=O)C5)CC3)cc2cc1NC(=O)c1cccc(C(F)(F)F)n1 (stereo not drawn) , please.
< 100 nM

Quick check: IC50 of CC(C)Oc1cc2nn(CCN3CCN(CC(=O)N4CCC5(CC4)CCN(c4cccc6c4C(=O)N(C4CCC(=O)NC4=O)C6=O)CC5)CC3)cc2cc1NC(=O)c1cccc(C(F)(F)F)n1 (stereo not drawn) ?
< 100 nM

Given COc1cc2nn(CCN3CCN(CC(=O)N4CCC5(CC4)CCN(c4cccc6c4C(=O)N(C4CCC(=O)NC4=O)C6=O)CC5)CC3)cc2cc1NC(=O)c1cccc(C(F)(F)F)n1 (stereo not drawn) , state its recorded IC50.
< 100 nM

# query: IC50 of entry CC(C)(O)c1cc2nn(CCN3CCN(CC(=O)N4CCC5(CC4)CCN(c4cccc6c4C(=O)N(C4CCC(=O)NC4=O)C6=O)CC5)C3=O)cc2cc1NC(=O)c1cccc(C(F)(F)F)n1 (stereo not drawn)
100 to 1000 nM

Recorded IC50 for COc1cc2nn(CCN3CCC(CC(=O)N4CCC5(CC4)CCN(c4cccc6c4C(=O)N(C4CCC(=O)NC4=O)C6=O)CC5)CC3)cc2cc1NC(=O)c1cccc(C(F)(F)F)n1 (stereo not drawn) , please?
< 100 nM

Entry under review: CC(C)Oc1cc2nn(CCN3CCN(CC(=O)N4CC5(C4)CN(c4cccc6c4C(=O)N(C4CCC(=O)NC4=O)C6=O)C5)CC3)cc2cc1NC(=O)c1cccc(C(F)(F)F)n1 (stereo not drawn) . Reported IC50?
< 100 nM

// returns reported IC50 for input COc1cc2c(cc1NC(=O)c1cccc(C(F)(F)F)n1)CN(CCC(C)(C)C(=O)N1CCC3(CCC(C(=O)N[C@H](C(=O)N4C[C@H](O)C[C@H]4C(=O)N[C@@H](C)c4ccc(-c5scnc5C)cc4)C(C)(C)C)CC3)CC1)C2=O
< 100 nM

Given COc1cc2nn(CCN3CCN(CC(=O)N4CCC5(CC4)CCN(c4cc6c(cc4F)C(=O)N(C4CCC(=O)NC4=O)C6=O)CC5)CC3)cc2cc1NC(=O)c1cccc(C(F)(F)F)n1 (stereo not drawn) , state its recorded IC50.
< 100 nM
